- Format: in vivo, human (healthy subjects)
- Condition Description: human, plasma, oral, 30 mg, AUCinf, geometric LS mean (SE), quizartinib in plasma; single 30-mg dose of quizartinib alone
Reported Metric: AUC(0-inf) (ng·h/mL)
Write the number in ng·h/mL without appending the unit.

Ask | Return reported AUC(0-inf); argument: `CC(C)(C)c1cc(NC(=O)Nc2ccc(-c3cn4c(n3)sc3cc(OCCN5CCOCC5)ccc34)cc2)no1`
Reply | 9630

###

- Format: in vivo, human (healthy subjects)
- Condition Description: human, plasma, oral, 30 mg, AUClast, geometric LS mean (SE), quizartinib in plasma; single 30-mg dose of quizartinib alone
Reported Metric: AUC(0-t) (ng·h/mL)
Write the number in ng·h/mL without appending the unit.

Ask | Return reported AUC(0-t); argument: `CC(C)(C)c1cc(NC(=O)Nc2ccc(-c3cn4c(n3)sc3cc(OCCN5CCOCC5)ccc34)cc2)no1`
Reply | 9100

###

- Type: in vivo, human (healthy subjects)
- Condition Description: human, plasma, oral, 30 mg, Mean T1/2 (CV%), quizartinib in plasma; single 30-mg dose of quizartinib alone
Reported Metric: half-life (h)
Write the number in h without appending the unit.

Ask | Return reported half-life; argument: CC(C)(C)c1cc(NC(=O)Nc2ccc(-c3cn4c(n3)sc3cc(OCCN5CCOCC5)ccc34)cc2)no1 [quizartinib]
Reply | 98

###

- Assay type: in vivo, human (healthy subjects)
- Condition Description: human, plasma, oral, 200 mg, AUClast, geometric LS mean (SE), quizartinib in plasma; single 30-mg dose with fluconazole 200 mg twice daily
Reported Metric: AUC(0-t) (ng·h/mL)
Write the number in ng·h/mL without appending the unit.

Ask | Return reported AUC(0-t); argument: `CC(C)(C)c1cc(NC(=O)Nc2ccc(-c3cn4c(n3)sc3cc(OCCN5CCOCC5)ccc34)cc2)no1`
Reply | 10900

###

- Type: in vivo, human (healthy subjects)
- Condition Description: human, plasma, oral, 200 mg, AUCinf, geometric LS mean (SE), quizartinib in plasma; single 30-mg dose with ketoconazole 200 mg twice daily
Reported Metric: AUC(0-inf) (ng·h/mL)
Write the number in ng·h/mL without appending the unit.

Ask | Return reported AUC(0-inf); argument: `CC(C)(C)c1cc(NC(=O)Nc2ccc(-c3cn4c(n3)sc3cc(OCCN5CCOCC5)ccc34)cc2)no1`
Reply | 18700

###

- Format: in vivo, human (healthy subjects)
- Condition Description: human, plasma, oral, 200 mg, Mean T1/2 (CV%), quizartinib in plasma; single 30-mg dose with fluconazole 200 mg twice daily
Reported Metric: half-life (h)
Write the number in h without appending the unit.

Ask | Return reported half-life; argument: `CC(C)(C)c1cc(NC(=O)Nc2ccc(-c3cn4c(n3)sc3cc(OCCN5CCOCC5)ccc34)cc2)no1`
Reply | 112

###

- Format: in vivo, human (healthy subjects)
- Condition Description: human, plasma, oral, 200 mg
Reported Metric: Tmax (h)
Write the number in h without appending the unit.

Ask | Return reported Tmax; argument: `CC(C)(C)c1cc(NC(=O)Nc2ccc(-c3cn4c(n3)sc3cc(OCCN5CCOCC5)ccc34)cc2)no1`
Reply | 4

###

- Type: in vivo, human (healthy subjects)
- Condition Description: human, plasma, oral, 200 mg, Mean T1/2 (CV%), quizartinib in plasma; single 30-mg dose with ketoconazole 200 mg twice daily
Reported Metric: half-life (h)
Write the number in h without appending the unit.

Ask | Return reported half-life; argument: `CC(C)(C)c1cc(NC(=O)Nc2ccc(-c3cn4c(n3)sc3cc(OCCN5CCOCC5)ccc34)cc2)no1`
Reply | 145
